- method_description: Solubility of compound in <1 % DMSO
- Format: physicochemical
parameter_measured: solubility

>  <molecule>
O=C(NCCN1CCOCC1)C1CCN(Cc2ccccc2)CC1

>  <observed_result>
Soluble

$$$$
>  <molecule>
O=C(NCCN1CCCCC1)C1CCN(Cc2ccccc2)CC1

>  <observed_result>
Soluble

$$$$
>  <molecule>
O=C(NCCc1c[nH]cn1)C1CCN(Cc2ccccc2)CC1

>  <observed_result>
Soluble

$$$$
>  <molecule>
COc1ccccc1CNC(=O)C1CCN(Cc2ccccc2)CC1

>  <observed_result>
Soluble

$$$$
>  <molecule>
O=C(NCc1ccccn1)C1CCN(Cc2ccccc2)CC1

>  <observed_result>
Soluble

$$$$
>  <molecule>
O=C(NCCc1c[nH]c2ccccc12)C1CCN(Cc2ccccc2)CC1

>  <observed_result>
Soluble

$$$$
>  <molecule>
O=C(NC1CCCc2ccccc21)C1CCN(Cc2ccccc2)CC1 (configuration not stated)

>  <observed_result>
Soluble

$$$$
>  <molecule>
O=C(NCCNc1cccc2ccccc12)C1CCN(Cc2ccccc2)CC1

>  <observed_result>
Soluble

$$$$
>  <molecule>
COc1cc(CCNC(=O)C2CCN(Cc3ccccc3)CC2)cc(OC)c1OC

>  <observed_result>
Soluble

$$$$
>  <molecule>
O=C(Nc1nccs1)C1CCN(Cc2ccccc2)CC1

>  <observed_result>
Soluble

$$$$
>  <molecule>
O=C(NCc1ccncc1)C1CCN(Cc2ccccc2)CC1

>  <observed_result>
Soluble

$$$$
>  <molecule>
COc1cc2c(cc1OC)-c1nc(NC(=O)C3CCN(Cc4ccccc4)CC3)sc1C2

>  <observed_result>
Soluble

$$$$
